- Tested on: BaF3 wild-type cells
- METHOD SUMMARY: Cellular screening, BaF3 wild-type cells, Alamar Blue
- Assay type: cell-based
- RUN PARAMETERS: Mus musculus, 40 hr, read-out: BAF3wt IC50_nM
- Protocol: For screening purposes, compounds were diluted in 96 well plates at a concentration of 20 μM. Plates were warmed at 37° C. for 30 minutes before the assay was performed. […] Compounds to be tested were added (10 μL, 10× final concentration) to a flat bottomed 96-well plate. […] The plates were then read at 544 nm.
pIC50: −log10 of the molar value.
// pIC50 lookup, one value per entry

MOLECULE: C=CC(=O)N(C)c1ccc(Sc2nc(Nc3ccc(N4CCOCC4)cc3)ncc2C)cc1 [Compound 173]
TARGET: BaF3 wild-type cells
pIC50: > 4.70
//
MOLECULE: Cc1cnc(Nc2ccc(N3CCOCC3)cc2)nc1Sc1ccc(NC(=O)/C=C/Cl)cc1 [Compound 343]
TARGET: BaF3 wild-type cells
pIC50: > 4.70
//
MOLECULE: C=CC(=O)Nc1ccc(Sc2nc(Nc3ccc(N4CCN(C)CC4)c(OC)c3)ncc2C)cc1 [Compound 249]
TARGET: BaF3 wild-type cells
pIC50: > 5.30

-- ask # returns recorded pIC50 (system: BaF3 wild-type cells) for C=CC(=O)Nc1ccc(Sc2ccnc(Nc3cccc(OC)c3)n2)cc1 [Compound 105]
-- reply < 4.70

----------
// GI50 lookup, one value per entry
- TARGET: BaF3 TELJAK2 cells (BafT_J2) (Homo sapiens)
- Construct: fused on or other part: TEL (ETV6) N-terminal part, coding nucleotides 1-487, serves as the oligomerising partner; It is fused through a Sal I site to the JAK2 kinase domain and expressed from pTRE2 in BaF3 cells bearing pTET-off; P41212 (Transcription factor ETV6)
- Sequence (O60674 whole entry, change not shown, the tested form may be a part): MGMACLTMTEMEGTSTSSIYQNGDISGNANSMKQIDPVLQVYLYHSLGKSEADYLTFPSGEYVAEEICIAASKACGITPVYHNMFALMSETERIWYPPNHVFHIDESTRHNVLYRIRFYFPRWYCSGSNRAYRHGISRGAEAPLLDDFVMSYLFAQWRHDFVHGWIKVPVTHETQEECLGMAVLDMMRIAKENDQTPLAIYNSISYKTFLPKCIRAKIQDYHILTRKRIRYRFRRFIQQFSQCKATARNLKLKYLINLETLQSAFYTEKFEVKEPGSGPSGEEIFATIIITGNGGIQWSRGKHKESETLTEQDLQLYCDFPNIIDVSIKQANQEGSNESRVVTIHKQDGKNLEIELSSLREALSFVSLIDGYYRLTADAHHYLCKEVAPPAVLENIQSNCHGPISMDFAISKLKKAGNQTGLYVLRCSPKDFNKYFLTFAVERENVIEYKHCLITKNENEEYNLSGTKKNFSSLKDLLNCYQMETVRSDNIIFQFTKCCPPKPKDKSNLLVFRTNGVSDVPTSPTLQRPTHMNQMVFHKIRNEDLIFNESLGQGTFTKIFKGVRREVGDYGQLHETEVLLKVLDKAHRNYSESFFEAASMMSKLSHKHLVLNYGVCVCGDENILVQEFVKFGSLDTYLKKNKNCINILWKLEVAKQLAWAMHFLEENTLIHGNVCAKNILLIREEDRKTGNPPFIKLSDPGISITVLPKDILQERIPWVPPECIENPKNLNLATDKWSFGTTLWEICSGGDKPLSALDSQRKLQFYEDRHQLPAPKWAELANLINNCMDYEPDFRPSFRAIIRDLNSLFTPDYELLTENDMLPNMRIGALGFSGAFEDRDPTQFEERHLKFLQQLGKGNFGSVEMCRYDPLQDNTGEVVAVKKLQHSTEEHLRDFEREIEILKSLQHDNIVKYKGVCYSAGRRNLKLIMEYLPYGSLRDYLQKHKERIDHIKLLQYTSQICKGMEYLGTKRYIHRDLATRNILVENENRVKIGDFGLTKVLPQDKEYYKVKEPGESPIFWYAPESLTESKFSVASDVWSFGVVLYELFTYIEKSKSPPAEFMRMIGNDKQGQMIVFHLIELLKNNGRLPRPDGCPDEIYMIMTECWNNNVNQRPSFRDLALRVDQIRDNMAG
- METHOD SUMMARY: Cellular screening, BaF3 TEL:JAK2 cells, Alamar Blue
- Format: cell-based
- RUN PARAMETERS: 40 hr, read-out: BafT_J2 IC50_nM

Please review the following examples before continuing.
ITEM SMILES: C=CC(=O)Nc1ccc(Sc2ccnc(Nc3ccc(F)c(C#N)c3)n2)cc1
MEASURED ATTRIBUTE: GI50
RESULT: < 20 µM

ITEM SMILES: C=CC(=O)Nc1ccc(Sc2ccnc(Nc3cccc(S(=O)(=O)N4CCOCC4)c3)n2)cc1
MEASURED ATTRIBUTE: GI50
RESULT: < 5 µM

ITEM SMILES: Cc1cnc(Nc2ccc(N3CCOCC3)cc2)nc1Sc1ccc(NC(=O)/C=C\C(=O)O)cc1
MEASURED ATTRIBUTE: GI50
RESULT: > 20 µM

ITEM SMILES: Cc1cnc(Nc2cccc(O)c2)nc1Sc1ccc(NC(=O)CCl)cc1
MEASURED ATTRIBUTE: GI50
RESULT: < 5 µM

API: the following record is the query input.
-- ask Name the recorded GI50 for COc1ccc(Nc2ncc(C)c(Sc3ccc(N)cc3)n2)cc1OC .
-- reply < 5 µM

----------
Notes on IC50 obtained with human JAK2 (Homo sapiens).
Sequence (O60674 849-1124 limits assumed): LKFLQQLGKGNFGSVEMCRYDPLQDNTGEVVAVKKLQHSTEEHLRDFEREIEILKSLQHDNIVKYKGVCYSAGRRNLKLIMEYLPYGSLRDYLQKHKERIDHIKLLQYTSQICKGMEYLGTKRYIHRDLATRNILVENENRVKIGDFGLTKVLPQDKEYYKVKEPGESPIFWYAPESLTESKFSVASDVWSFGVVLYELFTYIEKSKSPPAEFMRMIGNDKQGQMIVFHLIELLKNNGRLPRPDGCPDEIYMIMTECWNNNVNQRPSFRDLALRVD

Please review the following examples before continuing.
MOLECULE: C=CC(=O)Nc1ccc(Sc2nc(Nc3cccc(N4CCN(C)CC4)c3)ncc2C)cc1 [Compound 243]
RESULT: > 1000 nM
--
MOLECULE: COC(=O)COCC(=O)Nc1ccc(Sc2nc(Nc3ccc(N4CCOCC4)cc3)ncc2C)cc1 [Compound 189]
RESULT: > 1000 nM
--
MOLECULE: C=CC(=O)Nc1ccc(Sc2nc(Nc3ccc(N4CCCC(O)C4)cc3)ncc2C)cc1 (stereo not drawn) [Compound 299]
RESULT: > 1000 nM
--
MOLECULE: CCOC(=O)/C=C\C(=O)Nc1ccc(Sc2nc(Nc3ccc(N4CCOCC4)cc3)ncc2C)cc1 [Compound 388]
RESULT: < 500 nM
--
MOLECULE: C=CC(=O)Nc1ccc(Sc2nc(Nc3ccc(CNS(C)(=O)=O)cc3)ncc2C)cc1 [Compound 294]
RESULT: > 1000 nM
--
MOLECULE: CSc1nc(Nc2ccc(N3CCOCC3)cc2)ncc1C [Compound 176]
RESULT: < 1000 nM
--
MOLECULE: Cc1cnc(Nc2ccc(N3CCOCC3)cc2)nc1Sc1ccc(N2C(=O)C=C(Br)C2=O)cc1 [Compound 382]
RESULT: > 1000 nM
--
MOLECULE: C=CC(=O)Nc1ccc(Sc2ccnc(Nc3ccc(C(=O)OC)cc3)n2)cc1 [Compound 357]
RESULT: > 1000 nM

API: the following record is the query input.
-- ask Name the recorded IC50 for C=CC(=O)N1CCc2cc(Sc3nc(Nc4ccc(N5CCOCC5)cc4)ncc3C)ccc21 [Compound 170] .
-- reply > 1000 nM
